assay: Photostability of labeling fluorophores under white fluorescent lamp (residual fluorescence); assay type: physicochemical; conditions: 1 µM in 10 mM Tris-HCl buffer, pH 7.5, 25°C, white fluorescent lamp about 4000 lux, 16 hours; ratio of exposed solution to shaded solution
measure_name: Residual fluorescence (%)

>>> reported("NCCCCCNC(=S)Nc1ccc2c(c1)C(=O)OC21c2ccc(O)cc2Oc2cc(O)ccc21 [AF]")
17
>>> reported("Nc1cc(S(=O)(=O)O)cc2cc(S(=O)(=O)O)cc(S(=O)(=O)O)c12 [ANTS]")
96
>>> reported("NC(=O)c1ccccc1N [AB, 2-Aminobenzamide]")
96
>>> reported("CN(C)c1cccc2c(S(=O)(=O)NCCN)cccc12 [AD]")
97
>>> reported("Nc1ccccn1 [AP, 2-Aminopyridine]")
98
>>> reported("Nc1cccc2ccc(O)cc12 [AN, 8-Amino-2-naphthol]")
84
